Biological target: Cytochrome P450 2C9 (Homo sapiens)
Experiment: blockers of cytochrome P450 2C9 activity – biochemical, luminescence, ADME assay, primary screen (AID 777)
Details: CYP2C9 Supersomes, luciferin-H conversion, at 5 µM
The whole screen tested about 96,000 compounds, of which about 19,000 (20%) were called active.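 How the source made its calls: active means blocking of liver enzyme CYP2C9 beyond about 50% at 5 µM (limit read from the data); inactive means the rest.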 Not all results are given here.
Outcomes: Y for active, N for inactive

• COc1cccc(N(CC(=O)N2CCc3ccccc3C2)S(C)(=O)=O)c1 = N
• CC(C)(C)n1nc2c(c1NC(=O)c1ccc(S(=O)(=O)N3CCCC3)cc1)CS(=O)C2 (stereo unspecified) = N
• Cc1cccc(N(CC(=O)N2CCOCC2)S(C)(=O)=O)c1 = N
• Cc1ccc2c(c1)c1ncnc(N3CCc4ccccc4C3)c1n2C = Y
• CS(=O)(=O)N(CC(=O)N1CCN(c2cccc(Cl)c2)CC1)c1ccccc1 = Y
• Cc1nc(NC(CC(C)C)C(=O)O)c2nc(C)oc2n1 (stereo unspecified) = N

Cited source for all entries: PubChem BioAssay AID777
